Where do the numbers come from? From PubChem BioAssay AID1159580.

Listing: normalized growth of selected compounds
Test: chemical genetic growth profiling, strain panel (AID 1159580);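 further: tested at 20 µM; growth read once vehicle control cultures reached saturation at 30 °C; 1 = growth at the plate median or of vehicle wells; lower values mean less growth of the strain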
Conditions: S. cerevisiae deletion strains, growth OD, locus YDR150W, strain NUM1, stronger effect = lower value
In all, about 5,500 compounds went through this assay and about 2,000 (36%) were called active. About 18% were inconclusive and are not listed. The list shows a part of the results.
Keep the answer to the number alone.

Sample answers from the record:
compound: CS(=O)(=O)c1ccc([C@@H](O)[C@@H](CO)NC(=O)C(Cl)Cl)cc1
normalized growth: 0.977
--
compound: C=C(C)C1(O)OC(=O)C=C1OC (centres undefined)
normalized growth: 0.986

Look up normalized growth: CCN(CC)CCOC(=O)C(c1ccccc1)C1CCCCC1 (centres undefined)
0.989

Look up normalized growth: `O=C(O)c1cc(O)c2c(c1)[C@@H]([C@H]1c3cc(C(=O)O)cc(O)c3C(=O)c3c(O[C@H]4O[C@H](CO)[C@@H](O)[C@H](O)[C@H]4O)cccc31)c1cccc(O[C@H]3O[C@H](CO)[C@@H](O)[C@H](O)[C@H]3O)c1C2=O`
1.02

====

Assay: chemical genetic growth profiling, strain panel (AID 1159580)
Settings: S. cerevisiae deletion strains, growth OD, locus YER155C, strain BEM2 (second series)
Among all 5,500 compounds or so, about 2,000 (36%) were called active. About 18% were inconclusive and are not listed. Rule as the data show it: active = normalized growth mostly below about 0.91 (no sharp cut-off); inconclusive = no clear call, values can overlap the other calls; inactive = mostly above about 0.92. Some of the results follow.
Pick from active, inactive when you respond.

Before answering, review these 5 worked examples.
compound: CCCOc1ccc2nc(NC(=O)OC)[nH]c2c1
assigned_class: inactive
//
compound: CCN(CC)CCOCCOC(=O)C1(c2ccccc2)CCCC1
assigned_class: inactive
//
compound: Cc1cc(=O)[nH]c(=S)[nH]1
assigned_class: inactive
//
compound: CC(=O)OCC(=O)[C@@]1(O)[C@H](C)CC2C3CCC4=CC(=O)C=C[C@]4(C)[C@@]3(F)[C@@H](O)C[C@@]21C (some centres undefined)
assigned_class: inactive
//
compound: O=P1(N(CCCl)CCCl)NCCCO1 (centres undefined)
assigned_class: inactive

Tell me the assay call for `CCN(CC)CCOC(=O)C1(C2CCCCC2)CCCCC1` please.
inactive

Tell me the assay call for `COC(=O)/C(=C1\OC(=O)C(c2ccccc2)=C1O)c1ccccc1` please.
inactive

Tell me the assay call for CC(=O)O[C@H]1CCC2(C)C3=C(CCC2C1(C)C)[C@@]1(C)CC[C@@H](C(C)CCC=C(C)C)[C@]1(C)CC3 (some centres undefined) please.
inactive

Tell me the assay call for `O=C1NC(O)=NC1(c1ccccc1)c1ccccc1` please.
inactive

Tell me the assay call for CC(N=C(NC#N)Nc1ccncc1)C(C)(C)C (centres undefined) please.
inactive

====

Experiment: chemical genetic growth profiling, strain panel (AID 1159580)
Details: S. cerevisiae deletion strains, growth OD, locus YDR334W, strain swr1, stronger effect = lower value
Out of some 5,500 compounds screened, about 2,000 (36%) were called active. Inconclusive results (about 18%) are left out. This is one part of the list.
Listing: normalized growth of selected molecules
Keep the answer to the number alone.

Sample answers from the record:
molecule: CC(C)=CC1C(C(=O)O)C1(C)C (stereo not drawn)
recorded_metric: normalized growth
result_number: 0.976
//
molecule: CCN(CC)CCOCCOC(=O)C1(c2ccccc2)CCCC1
recorded_metric: normalized growth
result_number: 0.995
//
molecule: CCN1CCN(C(=O)NC(C(=O)N[C@@H]2C(=O)N3[C@@H]2SC(C)(C)[C@@H]3C(=O)O)c2ccccc2)C(=O)C1=O (stereo partly drawn)
recorded_metric: normalized growth
result_number: 1

Look up normalized growth: `CCN(CC)CCOC(=O)C1(C2CCCCC2)CCCCC1`
0.98

Look up normalized growth: `C[n+]1ccccc1/C=N/O`
1

Look up normalized growth: `CC(=O)Oc1cccc(O)c1`
1.01

Look up normalized growth: `CC(=O)Oc1ccc(/C=C/c2cc(OC(C)=O)cc(OC(C)=O)c2)cc1`
0.981

Look up normalized growth: `N=C(N)N`
0.992

Look up normalized growth: CC(=O)OCC(=O)[C@@]1(O)[C@H](C)CC2C3CCC4=CC(=O)C=C[C@]4(C)[C@@]3(F)[C@@H](O)C[C@@]21C (stereo partly drawn)
0.948

====

Assay: chemical genetic growth profiling, strain panel (AID 1159580)
Conditions: S. cerevisiae deletion strains, growth OD, locus YMR231W, strain pep5, stronger effect = lower value
About 2,000 (36%) of roughly 5,500 compounds were called active. Not shown: some 18% with an inconclusive outcome. The list shows a part of the results.
Listing: normalized growth of selected compounds

compound: COC(=O)/C(=C1\OC(=O)C(c2ccccc2)=C1O)c1ccccc1
normalized growth: 0.98 (inactive)

Look up normalized growth: COc1ccc(C2Sc3ccccc3N(CCN(C)C)C(=O)C2OC(C)=O)cc1 (configuration not stated)
0.965 (inactive)

Look up normalized growth: `O=C1NC(O)=NC1(c1ccccc1)c1ccccc1`
1.02 (inactive)

====

Test: chemical genetic growth profiling, strain panel (AID 1159580);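 further: tested at 20 µM; growth read once vehicle control cultures reached saturation at 30 °C; 1 = growth at the plate median or of vehicle wells; lower values mean less growth of the strain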
Details: S. cerevisiae deletion strains, growth OD, locus YIL066C, strain RNR3
The whole screen tested about 5,500 compounds, of which about 2,000 (36%) were called active. About 18% were inconclusive and are not listed. Cut-off read from the data, not from the text of the source: active = normalized growth mostly below about 0.91 (no sharp cut-off); inconclusive = no clear call, values can overlap the other calls; inactive = mostly above about 0.92. Some of the results follow.
Pick from active, inactive when you respond.

compound: Cc1ccc2c(c1)C1(C)CCCC(C)(C(=O)O)C1CC2 (stereo not given)
assigned_class: inactive

compound: NC1=NCCN1CC(=O)O
assigned_class: inactive

compound: CC(C)c1ccc2c(c1)CCC1C(C)(C(N)=O)CCCC21C (stereo not given)
assigned_class: inactive

compound: CC(C)=CCc1c2c(c3occ(-c4ccc(O)c(O)c4)c(=O)c3c1O)C=CC(C)(C)O2
assigned_class: active

compound: O=C1NC(O)=NC1(c1ccccc1)c1ccccc1
assigned_class: inactive

compound: CO[C@H]1CC(O[C@@H]2/C(C)=C/C[C@@H]3C[C@@H](C[C@]4(CC[C@H](C)[C@@H](C5CCCCC5)O4)O3)OC(=O)[C@@H]3C=C(C)/C(=N\O)[C@H]4OC/C(=C\C=C\[C@@H]2C)[C@]43O)O[C@@H](C)C1O (stereo not given in full)
assigned_class: inactive

compound: O=C(OCc1ccccc1)c1ccccc1
assigned_class: inactive

compound: NC(=O)NC(=O)Cc1ccccc1
assigned_class: inactive

Tell me the assay call for `CCCSc1ccc2nc(NC(=O)OC)[nH]c2c1` please.
inactive

Tell me the assay call for CC(C)c1ccc2c(c1)CCC1[C@](C)(CN)CCC[C@]21C (stereo not given in full) please.
active

====

Listing: normalized growth of selected compounds
Test: chemical genetic growth profiling, strain panel (AID 1159580);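 further: tested at 20 µM; growth read once vehicle control cultures reached saturation at 30 °C; 1 = growth at the plate median or of vehicle wells; lower values mean less growth of the strain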
Conditions: S. cerevisiae deletion strains, growth OD, locus YNL307C, strain MCK1 (second series), stronger effect = lower value
The whole screen tested about 5,500 compounds, of which about 2,000 (36%) were called active. Not shown: some 18% with an inconclusive outcome. This is one part of the list.
Keep the answer to the number alone.

structure: Brc1ccc(-c2csc(-c3ccncc3)n2)cc1
normalized growth: 0.847

Look up normalized growth: `Cc1onc(-c2c(F)cccc2Cl)c1/C(N)=N\OC(=O)c1ccc(C(C)(C)C)cc1`
0.998

Look up normalized growth: `CCOC(=O)/C(C#N)=C(\Nc1ccc(C(=O)OCC)cc1)SC`
0.931

Look up normalized growth: `Cc1c(C)c(C)c(C(=O)c2ccc(N=Cc3cc(Cl)cc(Cl)c3O)cc2)c(C)c1C`
0.503

Look up normalized growth: `CC(=O)c1ccc(Cl)c(N=Cc2cc(Cl)cc(Cl)c2O)c1`
0.209

Look up normalized growth: `Cc1ccc(-c2csc(-c3ccncc3)n2)cc1`
0.773

Look up normalized growth: `CCOC(=O)c1ccc(Cl)c(N=Cc2cc(Cl)cc(Cl)c2O)c1`
0.381

Look up normalized growth: `CSc1n[nH]c(-c2cc(C(C)(C)C)oc2C)c1C#N`
0.89

Look up normalized growth: `CC(=O)c1ccc(Cl)c(N=Cc2cc(Br)cc(Br)c2O)c1`
0.103

====

Assay: chemical genetic growth profiling, strain panel (AID 1159580);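 further: tested at 20 µM; growth read once vehicle control cultures reached saturation at 30 °C; 1 = growth at the plate median or of vehicle wells; lower values mean less growth of the strain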
Settings: S. cerevisiae deletion strains, growth OD, locus YAL040C, strain CLN3, stronger effect = lower value
The campaign covered roughly 5,500 compounds. About 2,000 (36%) were called active. Another 18% or so got no clear call; they are omitted. The list shows a part of the results.
Listing: normalized growth of selected molecules

Sample answers from the record:
molecule: C[N+]1(C)CCOC(O)(c2ccc(-c3ccc(C4(O)C[N+](C)(C)CCO4)cc3)cc2)C1 (centres undefined)
normalized growth: 1.09 (inactive)
--
molecule: CCN(CC)CCOC(=O)C1(C2CCCCC2)CCCCC1
normalized growth: 1.01 (inactive)
--
molecule: CC(=O)N[C@@H](Cc1c[nH]c2ccccc12)C(=O)OCc1cc(C(F)(F)F)cc(C(F)(F)F)c1
normalized growth: 1.02 (inactive)
--
molecule: N=C(N)c1ccccc1
normalized growth: 0.991 (inactive)
--
molecule: Cc1scc2c1N(C(=O)CN1CCN(C)CC1)c1ccccc1NC2=O
normalized growth: 0.985 (inactive)
--
molecule: CC[C@@H](C)[C@H]1O[C@]2(CC[C@@H]1C)C[C@@H]1C[C@@H](C/C=C(\C)[C@@H](O[C@H]3C[C@H](OC)[C@@H](O[C@H]4C[C@H](OC)[C@@H](O)[C@H](C)O4)[C@H](C)O3)[C@@H](C)/C=C/C=C3\CO[C@@H]4[C@H](O)C(C)=C[C@@H](C(=O)O1)[C@]34O)O2
normalized growth: 1.01 (inactive)

Look up normalized growth: NCC(O)(CS(=O)(=O)O)c1ccc(Cl)cc1 (centres undefined)
1.07 (inactive)

Look up normalized growth: `C#CCN[C@H](C)Cc1ccccc1`
1 (inactive)

Look up normalized growth: `O=C1N(c2ccccc2)c2ccccc2C1(Cc1ccncc1)Cc1ccncc1`
1.01 (inactive)
